Origin of the recorded values: patent US7612201B2

target: yeast HSP90 (Saccharomyces cerevisiae, UniProt P02829)
Sequence (P02829 whole entry): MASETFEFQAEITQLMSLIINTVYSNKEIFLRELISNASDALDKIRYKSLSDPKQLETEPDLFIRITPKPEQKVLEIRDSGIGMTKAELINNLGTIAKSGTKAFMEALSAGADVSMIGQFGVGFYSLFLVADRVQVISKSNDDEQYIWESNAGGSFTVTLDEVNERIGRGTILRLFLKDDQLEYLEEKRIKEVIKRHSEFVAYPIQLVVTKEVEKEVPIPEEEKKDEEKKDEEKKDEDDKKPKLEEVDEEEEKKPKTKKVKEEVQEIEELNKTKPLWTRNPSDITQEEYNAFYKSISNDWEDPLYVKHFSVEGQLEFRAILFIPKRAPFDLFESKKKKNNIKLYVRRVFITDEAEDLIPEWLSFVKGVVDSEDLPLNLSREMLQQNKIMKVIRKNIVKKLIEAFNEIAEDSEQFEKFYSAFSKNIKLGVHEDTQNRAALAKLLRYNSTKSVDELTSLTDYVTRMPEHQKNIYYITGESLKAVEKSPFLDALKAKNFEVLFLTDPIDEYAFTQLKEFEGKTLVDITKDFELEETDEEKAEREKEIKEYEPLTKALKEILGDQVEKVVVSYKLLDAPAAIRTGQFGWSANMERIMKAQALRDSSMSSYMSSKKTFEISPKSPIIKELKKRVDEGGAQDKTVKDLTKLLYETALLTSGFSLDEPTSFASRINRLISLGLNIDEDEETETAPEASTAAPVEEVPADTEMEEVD
Measured endpoint: IC50

A selection of reference data follows.
[[record]]
compound = "Oc1cc(O)c(-c2n[nH]cc2N2CCC(NCc3ccc(F)cc3)CC2)cc1Br [Example 80]"
val = "< 50 µM"

[[record]]
compound = "CC(C)(C)OC(=O)CN1CCN(c2c[nH]nc2-c2cc(Cl)c(O)cc2O)CC1 [Example 41]"
val = "> 50 µM"

[[record]]
compound = "CCN1CCN(c2c[nH]nc2-c2cc(Cl)c(O)cc2O)CC1 [Example 6]"
val = "< 50 µM"


Q: Query the reported IC50 for yeast HSP90 (Saccharomyces cerevisiae, UniProt P02829); item: Oc1cc(O)c(-c2n[nH]cc2N2CCC(NCc3ccc(Cl)cc3)CC2)cc1Br [Example 82]
Result: < 50 µM

Q: Cool, now Oc1cc(O)c(-c2n[nH]cc2N2CCN(Cc3cccnc3)CC2)cc1Cl [Example 7]
Result: < 50 µM

Q: Queued: OCCNC1CCN(c2c[nH]nc2-c2cc(Br)c(O)cc2O)CC1 [Example 98]
Result: < 50 µM

Q: Record: N#CCCCN1CCN(c2c[nH]nc2-c2cc(Cl)c(O)cc2O)CC1 [Example 13]
Result: < 50 µM

Q: Check NC(=O)c1cccc(CN2CCN(c3c[nH]nc3-c3cc(Cl)c(O)cc3O)CC2)c1 [Example 25] too.
Result: < 50 µM

Q: Same read-out for N#CCOc1cc(O)c(-c2n[nH]cc2N2CCN(CC#N)CC2)cc1Cl [Example 11] ?
Result: > 50 µM

Q: Likewise for N#Cc1cccc(CN2CCN(c3c[nH]nc3-c3cc(Cl)c(O)cc3O)CC2)c1 [Example 19] ?
Result: < 50 µM

Q: Do the same for Oc1cc(O)c(-c2n[nH]cc2N2CCNCC2)cc1Br [Example 55] please
Result: > 50 µM

Q: Moving on to the next compound: OCCN1CCN(c2c[nH]nc2-c2cc(Cl)c(O)cc2O)CC1 [Example 9]
Result: > 50 µM

Q: Same lookup for CN1CCN(c2c[nH]nc2-c2cc(Cl)c(O)cc2O)CC1 [Example 4] , please.
Result: < 50 µM

Q: Ok, now COC(=O)c1cccc(CN2CCN(c3c[nH]nc3-c3cc(Cl)c(O)cc3O)CC2)c1 [Example 16]
Result: < 50 µM

Q: Same for C#CC[N+]1(CC#C)CCN(c2c[nH]nc2-c2cc(Cl)c(O)cc2O)CC1 [Example 27]
Result: < 50 µM
